# assayed.target: T1, Bre1-LR K379A (budding yeast, UniProt Q07457 227-700, K379A)
# T1 construct: source: E. coli BL21 Rosetta (DE3), purified (Ni-NTA, heparin, gel filtration)
# T1 sequence (looked up): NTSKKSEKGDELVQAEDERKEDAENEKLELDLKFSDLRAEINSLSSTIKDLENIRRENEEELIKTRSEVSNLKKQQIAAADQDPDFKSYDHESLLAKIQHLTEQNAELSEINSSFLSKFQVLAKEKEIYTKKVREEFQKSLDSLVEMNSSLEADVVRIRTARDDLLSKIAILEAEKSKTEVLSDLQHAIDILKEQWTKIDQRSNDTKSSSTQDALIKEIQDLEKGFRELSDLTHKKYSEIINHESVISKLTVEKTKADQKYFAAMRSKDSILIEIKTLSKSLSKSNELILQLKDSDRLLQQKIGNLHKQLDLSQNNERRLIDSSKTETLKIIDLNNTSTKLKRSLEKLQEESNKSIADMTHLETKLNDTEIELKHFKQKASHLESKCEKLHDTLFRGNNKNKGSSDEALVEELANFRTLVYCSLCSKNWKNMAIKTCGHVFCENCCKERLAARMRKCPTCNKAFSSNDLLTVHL
# test.name: SPR; Lge1-CT immobilised on a CM5 chip, Bre1-LR flown over; Biacore 8K, 25°C, 20 mM HEPES (pH 7.5), 200 mM sodium chloride, 0.02% Tween 20
# measurement.parameters: both partners purified
readout.name: pKd
Please treat pKd as minus the base-10 logarithm of the molar concentration.

The binder identified as Lge1-CT (Lge1 residues 261–332), intein-chitin binding domain (CBD) tag construct (domain or fragment, budding yeast, UniProt Q02796 261-332, looked up, Lge1, budding yeast, residues 261-332; residues 268–331 resolved in the electron density; the intein-CBD tag is named on the protein in the pull-down; also called intein-CBD-fused Lge1-CT; intein-CBD-tagged Lge1-CT; source: E. coli BL21 Rosetta (DE3): cleared cell extract on chitin resin (pull-down); purified (chitin, heparin, gel filtration) for ITC and SPR; co-purified with Bre1-LR for the …) KNVKKTNNTESECEKAREVFKESDSIDSALEELNLKINSNELELRLLNNQCDKHALNIQLTQEKLDSLLLMQ registered its pKd at 7.47
